endpoint: melting point

compound-string: C=C(C)Cn1c(S)nc2c(cnn2C)c1=O
test-result: 158 to 160 °C
--
compound-string: Nc1ccc(C(=O)c2cccnc2)cc1[N+](=O)[O-]
test-result: 229 to 230 °C
--
compound-string: CC(=O)N1CCc2c(c3ccc(-n4ccc(OCc5ccc(F)cn5)cc4=O)cc3n2C)C1
test-result: 220 to 224 °C
--
compound-string: C/C(=C(\Br)C=O)c1ccc2c(c1)C(C)(C)CCC2(C)C
test-result: 115 to 117 °C
--
compound-string: Cc1ccc(S(=O)(=O)NCCc2ccc(C(=O)CN3CCN(c4ccncc4)CC3)cc2)cc1
test-result: 133 to 135 °C
--
compound-string: Cc1cccc(NC(=O)CN2CCN(c3ncccc3C#N)CC2)c1
test-result: 99 to 100 °C

----------
compound: CCOC(=O)C1=CC(OC)(OC)CCC1S(=O)(=O)Nc1ccc(F)cc1Cl (stereo not drawn)
melting point: 97 to 98 °C
//
compound: COc1ccc2c(c1)CCC1CCNC(=O)C(CC(=O)NC(C)C)=C21 (stereo not drawn)
melting point: 213 to 216 °C
//
compound: Cc1cc(C(=O)C(=O)O)ccc1OCCOc1ccc2ccccc2c1
melting point: 167 to 169 °C

----------
Parameter melting point: see the listing below.

compound: CCc1ccc2ccc(=O)[nH]c2n1
melting point: 133 to 134 °C
//
compound: c1ccc(COc2cccc(CCCn3ccnc3)c2)cc1
melting point: 82 to 83 °C
//
compound: CN1C(=O)N(C[C@@H]2COC(=O)[C@@H]2CC2CCCC2)C(=O)C1(C)C (racemic)
melting point: 71 to 74 °C
//
compound: COC(=O)C1=C(C)NC(C)=C(C(=O)OCCN2CC=C(c3ccccc3)CC2)C1c1cccc([N+](=O)[O-])c1 (configuration not stated)
melting point: 115 to 116 °C
//
compound: COc1cc2c3c(c1)c(N)c(C(=O)N1CCc4ccccc41)c(=O)n3CCO2
melting point: 130 to 140 °C
//
compound: CCOc1nc(Br)cnc1N
melting point: 84 °C
//
compound: COC(=O)c1cc2cc(Cl)c(Cl)cc2nc1Cl
melting point: 178 to 180 °C
//
compound: COc1cc(OC(=O)C(C)C)c2c(=O)c(OC)c(-c3ccc(OC(=O)C(C)(C)C)c(OC)c3)oc2c1
melting point: 151 to 152 °C
//
compound: CC(=O)OC1CSC(Oc2c(C)ccnc2Cl)C(OC(C)=O)C1OC(C)=O (configuration not stated)
melting point: 144 °C
//
compound: O=C1c2ccccc2CCn2cccc21
melting point: 54 to 55 °C
//
compound: COc1ccc(-c2cc3ccccc3[nH]2)c(C)c1
melting point: 131 °C
//
compound: C[C@H](c1ccccc1)n1c(O)nc2c(N)nc3ccccc3c21
melting point: > 250 °C
//
compound: CS(=O)(=O)c1cc(CC(=O)O)cc2c1NC(C(F)(F)F)CC2 (configuration not stated)
melting point: 124 to 125 °C
//
compound: N#CC(CCSC(F)(F)F)S(=O)CCC(F)(F)C(F)(F)F (configuration not stated)
melting point: 41 to 43 °C
//
compound: CCCNC(=O)C1(CCCCc2ccc(N3Cc4ccccc4C3=O)cc2)c2ccccc2-c2ccccc21
melting point: 147 to 148 °C
//
compound: CCOC(=O)c1cn(CCNC(=O)OC(C)(C)C)c(Br)c1-c1cccc(F)c1
melting point: 108 to 110 °C
//
compound: CNS(=O)(=O)c1cc(S(=O)(=O)NC)c(C(Cl)=C(Cl)Cl)cc1N
melting point: 211 to 212 °C
//
compound: O=C(CC1C2=C(CCCC2)C(=O)N1c1ccc(Cl)cc1)N1CCCCC1 (configuration not stated)
melting point: 120 to 122 °C
//
compound: CC(COc1c(-c2ccccc2)c(=O)[nH]c2cc(Cl)ccc12)=NO
melting point: 196 to 198 °C
//
compound: Cc1oc(-c2ccccc2)nc1CCOc1ccc(CC(C(=O)O)C(=O)N(C)C)cc1 (configuration not stated)
melting point: 48.5 to 49.7 °C
//
compound: COc1cc2c(cc1Nc1ncc(Cl)c(Nc3ccccc3S(=O)(=O)N3CCC(O)C3)n1)CCN(CC(=O)N(C)C)CC2 (configuration not stated)
melting point: 70 to 84 °C
//
compound: CCCCOC(=O)[C@H]1CN(c2cc(F)c(N3CCSCC3)c(F)c2)C(=O)O1
melting point: 102 to 103 °C
//
compound: C(=Cc1ccc(-c2nnc(-c3ccccc3)o2)cc1)c1ccc(-c2cnn(-c3ccccc3)n2)cc1
melting point: 209 to 210 °C
//
compound: NC(=O)Cc1c(-c2ccccc2)nn2cccnc12
melting point: 217 to 219 °C
//
compound: C=Cc1cc(Br)c(Br)cc1Br
melting point: 64 °C
//
compound: CC(C)(C)C(NC(=O)COc1ccccc1)Nc1c(Nc2cccnc2Cl)c(=O)c1=O (configuration not stated)
melting point: 220 to 221 °C
//
compound: COc1ccc2c(c1)C(c1ccc(N)cc1)=NN(C(=O)C1CC1)C(C)=C2
melting point: 214 to 216 °C
//
compound: CCOC(=O)CC(O)(CC)c1cc2n(c(=O)c1CO)Cc1cc3ccccc3nc1-2 (configuration not stated)
melting point: 157 to 161 °C
//
compound: CCC(=O)c1ccc(C#C[Si](C)(C)C)cc1
melting point: 36 to 37 °C
//
compound: CC1(C)OC(=O)C(c2cccc(F)c2)=C1c1ccc(S(C)(=O)=O)cc1
melting point: 173 °C
//
compound: COc1cc2c(Nc3cc(OC)c(Cl)cc3Cl)c(C#N)cnc2cc1F
melting point: 219 to 221 °C
//
compound: COc1nc(Br)nc(OC)n1
melting point: 118 to 120 °C
